Attribute: composite z-score
test system: Chordin-like protein 2 (CHRDL2); assay: CHRDL2 small-molecule binders, primary screen, biochemical, small-molecule microarray, 635 nm fluorescence (AID 1126); settings: small-molecule microarray binding, fluorescence 635 nm; higher = more signal;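 also: printed compound slides probed with Chrdl2 protein at 4 µg/mL for 1 h at 4 C; score merges 667 nm emission intensity with signal to noise over three replicate slides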
reported endpoint: composite z-score

molecule	reported endpoint	observed
O=C(CCCCCCC(=O)Nc1ccccc1)N/N=C/c1ccccc1	composite z-score	0.358
COCCCNC(=O)[C@@]1(Sc2ccc(C)cc2)CC(=O)N(Cc2cc(C(F)(F)F)cc(C(F)(F)F)c2)[C@@H]1c1ccc(CO)cc1	composite z-score	0.749
O=C1NC(=O)C2C1C=CC(C(O)c1cc(C(F)(F)F)cc(C(F)(F)F)c1)N2Nc1ccc(Cl)cc1Cl (stereo not given)	composite z-score	-0.464
O=c1cccc(-c2ccc(C(F)(F)F)cc2)o1	composite z-score	-0.291
C[C@]12C(=O)N(CCCCCCO)[C@@H]3C(=O)N(c4ccc(Cl)cc4)CC=CC31O[C@@H]1/C=C\CCCOC(=O)C12 (stereo not given in full)	composite z-score	-1.75
C[C@]1(C(=O)NCCN2CCOCC2)c2ccccc2C(=O)N(Cc2ccc(OC(F)(F)F)cc2)[C@H]1c1ccc(CO)cc1	composite z-score	-1.15
CCOC(=O)[C@H]1C/C=C/C[C@H](C(=O)OCC)C(=O)O[C@H]2[C@@H](OC)O[C@H](CO)[C@@H](OC(=O)Nc3ccc(OC)cc3)[C@@H]2OC1=O	composite z-score	0.37
O=C1O[C@@H](c2ccccc2)[C@@H](c2ccccc2)N2[C@@H](c3ccccc3OCCO)[C@]3(C(=O)Nc4ccc(C#CCCO)cc43)[C@@H](C(=O)Nc3nc4ccccc4s3)[C@H]12	composite z-score	0.529
CCCN1C(=O)[C@]2(Cc3ccccc3)N=C(c3ccc(OCCCO)cc3)O[C@@H]2c2ccccc21	composite z-score	0.777
COC(=O)C[C@H]1O[C@]2(C(=O)N(C)c3ccccc32)[C@@H](C)[C@@H]1[Si](C)(C)c1ccc(C)cc1	composite z-score	0.0565
CCN(CC)c1ccc(N2CC=CC34O[C@@H]5/C=C\CCC(C)OC(=O)C5[C@H]3C(=O)N(CCO)[C@@H]4C2=O)cc1 (stereo not given in full)	composite z-score	-1.01
COCCOC(=O)N1C(=O)[C@@]2(c3ccccc31)[C@H](c1ccc(OCCO)cc1)N1[C@H](c3ccccc3)[C@H](c3ccccc3)OC(=O)[C@H]1[C@@H]2C(=O)Nc1nc2ccccc2s1	composite z-score	0.232
[N-]=[N+]=NCc1ccccc1[C@H]1OC(c2ccc(OCCCO)cc2)=N[C@@]1(CCS(=O)(=O)c1ccccc1)C(N)=O	composite z-score	-0.0208
COc1ccc([Si](C)(C)[C@H]2[C@H](CC(=O)N3Cc4ccccc4C[C@H]3CO)O[C@@]3(C(=O)N(Cc4cccc(N5CCCCC5=O)c4)c4ccccc43)[C@@H]2C)cc1	composite z-score	1.19
CCOC(=O)C1=CC[C@@H](c2cc(Cl)ccc2Cl)N(S(=O)(=O)c2ccc(C)cc2)[C@H]1c1ccc(OC)cc1	composite z-score	-0.362

====

assay: modulators of HCV replicon luciferase signal, primary screen, HCV replication inhibitor project, Huh7 cells, luciferase reporter (AID 1109); settings: 48 h, higher = more signal;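 also: huh7 hepatoma cells harbouring a luciferase neomycin HCV replicon reporter; luciferase luminescence as measure of HCV replicon replication; test concentration not given here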
reported endpoint: z-score

molecule	reported endpoint	observed
COCCOC(=O)N1C(=O)[C@@]2(c3cc(C#CC4=CCCCC4)ccc31)[C@H](c1ccc(O)cc1)N1[C@H](c3ccccc3)[C@H](c3ccccc3)OC(=O)[C@H]1[C@@H]2C(=O)Nc1nc2ccccc2s1	z-score	-0.598
COc1ccc(C(O)C2C=CC3C(=O)N(c4ccccc4)C(=O)C3N2Nc2ccccc2)cc1OCc1ccccc1 (centres undefined)	z-score	-0.412
COC(=O)C(CC#Cc1ccc2c(c1)[C@]1(C(=O)N2)[C@H](C(=O)O)[C@H]2C(=O)O[C@H](c3ccccc3)[C@H](c3ccccc3)N2[C@@H]1c1ccccc1OCCO)C(=O)OC	z-score	-2.04
CC(C)NC(=O)[C@@]1(C)c2ccccc2C(=O)N(C(C)C)[C@H]1c1ccc(CO)cc1	z-score	-0.593

====

target: Torsin-1A-interacting protein 1 (Homo sapiens) (UniProt Q5JTV8); assay: LAP1 binders from COS7 cell lysate, primary screen, small-molecule microarray, 635/667 nm fluorescence (AID 1116); settings: COS7-hLAP1 lysate binding, 635 nm fluorescence, higher = more signal
Sequence (Q5JTV8 whole entry, looked up): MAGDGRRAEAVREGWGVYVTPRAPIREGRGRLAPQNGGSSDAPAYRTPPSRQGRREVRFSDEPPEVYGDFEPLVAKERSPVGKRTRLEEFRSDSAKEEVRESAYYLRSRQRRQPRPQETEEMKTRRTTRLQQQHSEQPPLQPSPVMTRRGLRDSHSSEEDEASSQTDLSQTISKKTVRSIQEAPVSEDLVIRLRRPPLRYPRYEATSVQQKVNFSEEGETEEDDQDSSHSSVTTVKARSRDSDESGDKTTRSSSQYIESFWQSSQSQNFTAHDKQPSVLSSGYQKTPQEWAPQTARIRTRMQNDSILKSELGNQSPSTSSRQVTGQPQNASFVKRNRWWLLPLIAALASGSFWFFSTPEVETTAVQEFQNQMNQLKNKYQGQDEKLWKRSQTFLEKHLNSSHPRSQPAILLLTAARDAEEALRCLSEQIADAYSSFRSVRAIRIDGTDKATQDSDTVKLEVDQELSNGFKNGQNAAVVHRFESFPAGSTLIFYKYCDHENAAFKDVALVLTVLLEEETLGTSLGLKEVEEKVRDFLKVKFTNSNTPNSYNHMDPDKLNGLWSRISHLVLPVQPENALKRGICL

compound	composite z-score
C#CCNC(=O)[C@H](Cc1ccccc1)NC(=O)[C@@H](N=[N+]=[N-])C(C)C	0.455
C=CCOC(=O)[C@@H]1[C@H]2C(=O)O[C@H](c3ccccc3)[C@H](c3ccccc3)N2[C@H](c2ccc(OCCOC(=O)[C@H]3C[C@H]4C(=O)N[C@@H](CCCC[N+](C)(C)C)C(=O)N4[C@H]3c3ccc(O)cc3)cc2)[C@@]12C(=O)Nc1ccc(I)cc12	1.49
NC(=O)NCC#Cc1ccc2c(c1)[C@]1(C(=O)N2)[C@H](c2ccc(O)cc2)N2[C@H](c3ccccc3)[C@H](c3ccccc3)OC(=O)[C@H]2[C@@H]1C(=O)Nc1nc2ccccc2s1	0.633
O=C1c2ccccc2[C@@]2(Cc3ccccc3N(C3CC3)C2=O)[C@H](c2ccc(CO)cc2)N1C1CCCCC1	-0.502
COc1cc(CO)cc(I)c1O[C@H]1C=C(C(=O)NCCO)C[C@@H](N(CC2CCCCC2)C(=O)c2ccc(C(F)(F)F)cc2)[C@@H]1O	0.465
C=CCOC(=O)[C@@H]1[C@H]2C(=O)O[C@H](c3ccccc3)[C@H](c3ccccc3)N2[C@H](c2ccc(OCCOC(=O)[C@H]3C[C@H]4C(=O)N[C@@H](CC(C)C)C(=O)N4[C@H]3c3ccc(O)cc3)cc2)[C@@]12C(=O)Nc1ccc(I)cc12	0.859
COc1cc(CO)cc(I)c1O[C@H]1C=C(C(=O)NCCO)C[C@@H](NCc2ccccc2F)[C@@H]1O	1.4
C[C@@H](OCc1ccccc1)C1NC(=O)[C@@]23C(=O)N[C@@H](Cc4ccccc4)C2[C@H](C)[C@@]2(C)O[C@H]2C3/C=C/C/C=C\CNC(=O)CNC1=O (stereo not given in full)	-0.143
C=C(C(=O)CC[C@H](OC(=O)c1cccnc1)c1cccc(OCCO)c1)C(C)C	0.307
CC(C)N1CC=CC23O[C@@H]4C=CCCOC(=O)C4[C@H]2C(=O)N(CCO)[C@@H]3C1=O (stereo not given in full)	-0.494
COc1c(C)cc(-c2cc3c(c(-c4ccccc4)n2)[Si](C(C)C)(C(C)C)OC3)cc1C	-0.16
COCCOC(=O)N1C(=O)[C@@]2(c3cc(C#CC4=CCCCC4)ccc31)[C@H](c1ccc(O)cc1)N1[C@H](c3ccccc3)[C@H](c3ccccc3)OC(=O)[C@H]1[C@@H]2C(=O)Nc1nc2ccccc2s1	1.12
CN1C(=O)[C@@]2(CCS(=O)(=O)c3ccccc3)N=C(c3ccc(OCCCO)cc3)O[C@H]2c2ccccc21	1.72
C=C[C@@H](C)[C@H](OC(=O)Nc1ccc(SC)cc1)c1ccc(OCCO)cc1	-0.111
O=C1c2ccccc2[C@](Cc2ccccc2I)(C(=O)NCc2ccccc2)[C@H](c2ccc(CO)cc2)N1C1CCCCC1	0.616
O=C1O[C@@H](c2ccccc2)[C@@H](c2ccccc2)N2[C@@H](c3ccccc3OCCO)[C@]3(C(=O)Nc4ccccc43)[C@@H](C(=O)NC[C@H](O)c3ccccc3)[C@H]12	1.35
CN1C(=O)C2C=CC(C(O)c3c(F)cccc3Cl)N(Nc3ccccc3)C2C1=O (stereo not given)	0.0127
CC(C)(C)OC(=O)CC[C@]1(C(=O)NCCN2CCOCC2)N=C(c2ccc(OCCCO)cc2)O[C@H]1c1ccccc1N=[N+]=[N-]	1.7
O=C(CS)NCCCCCCNC(=O)[C@@H]1C[C@@H]2C(=O)N3CCC[C@H]3C(=O)N2[C@@H]1c1cccc(OCCO)c1	1.41
CN1C(=O)C2C=CC(C(O)C3CCCCC3)N(N3CCCCC3)C2C1=O (stereo not given)	1.4

====

experiment: small-molecule microarray binders of probe aEGFR, primary screen, biochemical, biotinylated probe, 635/667 nm fluorescence (AID 1097); settings: higher = more signal;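 also: probe is a biotinylated anti-EGFR antibody binding compounds printed on slides; score combines fluorescence near 667 nm and signal to noise of each spot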

compound	composite z-score
COc1ccc([Si](C)(C)[C@H]2[C@H](CCn3cc([C@H](O)c4ccccc4)nn3)O[C@@]3(C(=O)N(Cc4ccc(N5CCOC5=O)cc4)c4ccccc43)[C@@H]2C)cc1	-0.227
[N-]=[N+]=NCc1ccccc1[C@H]1OC(c2ccc(OCCCO)cc2)=N[C@@]1(CCS(=O)(=O)c1ccccc1)C(N)=O	0.0929
CC(=O)n1cc(C(O)C2C=CC3C(=O)N(c4ccccc4)C(=O)C3N2Nc2ccccc2)c2ccccc21 (stereo not drawn)	0.672
Cc1c(NC(=O)/C(C#N)=C/C=C/c2ccc(N(C)C)cc2)c(=O)n(-c2ccccc2)n1C	0.118
COCCOC(=O)N1C(=O)[C@@]2(c3cc(C#CCC(C(=O)OC)C(=O)OC)ccc31)[C@H](c1ccc(OCCO)cc1)N1[C@H](c3ccccc3)[C@H](c3ccccc3)OC(=O)[C@H]1[C@@H]2C(=O)N1CCN(c2ncccn2)CC1	0.0397
COc1c(C)cc(-c2cc3c(c(Cc4ccccc4)n2)[Si](C(C)C)(C(C)C)OC3)cc1C	-0.0509
COCCOC(=O)N1C(=O)[C@@]2(c3cc(C#CC4(O)CCCCCC4)ccc31)[C@H](c1ccccc1OCCO)N1[C@H](c3ccccc3)[C@H](c3ccccc3)OC(=O)[C@H]1[C@@H]2C(N)=O	0.0254
CC(C)(C)OC(=O)CC[C@]1(C(=O)NCCN2CCOCC2)N=C(c2ccc(OCCCO)cc2)O[C@H]1c1ccccc1N=[N+]=[N-]	0.0988
C=CC[C@@]1(C(=O)N2CCCCC2)N=C(c2ccc(OCCCO)cc2)O[C@@H]1c1ccccc1	0.0222
COCCCNC(=O)[C@@]1(Sc2ccc(C)cc2)CC(=O)N(C2Cc3ccccc3C2)[C@@H]1c1ccc(CO)cc1I	-0.251
COCC(=C=CC[C@H](O)c1ccc(OCCO)cc1)C[C@H](O)COCc1ccccc1	-0.02
CO[C@H]1O[C@H](CO)[C@@H](OC(=O)Nc2ccc(Oc3ccccc3)cc2)[C@H](OC(=O)Nc2ccccc2-c2ccccc2)[C@@H]1OC(=O)Nc1ccccc1-c1ccccc1	0.425
COC(=O)[C@@]1(Cc2ccccc2)[C@H]2c3cc(C(=O)N4CCCC4)[nH]c3C[C@H]2CN1C(=O)c1ccccc1	-0.122
C=CCN1C(=O)[C@]2(CC=C)N=C(c3ccc(OCCCO)cc3)O[C@@H]2c2ccccc21	0.038
CCCC=C(CCC)[C@@H](NP(=O)(c1ccccc1)c1ccccc1)c1ccc(C(F)(F)F)cc1	0.58
CCOC(=O)C1=CC[C@@H](c2ccccc2C(F)(F)F)N(S(=O)(=O)c2ccc(C)cc2)C1	0.678
O=C1O[C@@H](c2ccccc2)[C@@H](c2ccccc2)N2[C@@H](c3ccc(O)cc3)[C@]3(C(=O)Nc4ccc(C#CC5=CCCCC5)cc43)[C@@H](C(=O)N3CCN(c4ncccn4)CC3)[C@H]12	-0.115
[N-]=[N+]=NCc1ccccc1C[C@@]1(C(=O)NCCN2CCOCC2)N=C(c2ccc(OCCCO)cc2)O[C@@H]1c1ccccc1N=[N+]=[N-]	-0.0738
C[C@@H](OCc1ccccc1)C1NC(=O)[C@@]23C(=O)N[C@@H](Cc4ccccc4)C2[C@H](C)[C@@]2(C)O[C@H]2C3/C=C/C/C=C\CNC(=O)CNC1=O (stereo partly drawn)	-0.24
CC(C)C(O)C1C=CC2C(=O)N(C)C(=O)C2N1N(c1ccccc1)c1ccccc1 (stereo not drawn)	0.102
C=CC[C@@H](OC(=O)Nc1ccc(OC)cc1)c1ccc(OCCO)cc1	-0.338
O=C1O[C@@H](c2ccccc2)[C@@H](c2ccccc2)N2[C@@H](c3ccccc3OCCO)[C@]3(C(=O)Nc4ccc(C#CC5=CCCCC5)cc43)[C@@H](C(=O)NC[C@H](O)c3ccccc3)[C@H]12	-0.0371
COc1ccc(C(O)C2C=CC3C(=O)N(C)C(=O)C3N2N2CCCCC2)cc1 (stereo not drawn)	0.0961
